Reference for the values: patent US8865623B2

Exercise: for every item that follows, state its recorded pest or weed control at 250 g/ha.
tested on: Echinochloa crus-galli (ECHCG); experiment: Pre-emergence herbicidal activity, glasshouse pot test; type: in vivo; conditions: Echinochloa crus-galli, 312 h; Rate 250 g/ha; pre-emergence spray; evaluated after 13 days; read-out: Pre-emergence activity ECHCG (100=total damage to plant; 0=no damage to plant)
State just the number; it will be interpreted in %.

Record CCc1ccc(Oc2cnc3ccccc3n2)cc1C1=C(O)CC(C)(C)CC1=O [Example A-291] / Echinochloa crus-galli (ECHCG), pest or weed control at 250 g/ha recorded as 100

Echinochloa crus-galli (ECHCG) data for CCc1ccc(Oc2ccc(Cl)cc2)cc1C1=C(O)C(C)(C)CCC1=O [Example A-50] ; its pest or weed control at 250 g/ha: 100

// assay Echinochloa crus-galli (ECHCG), entry CCc1ccc(Oc2ccc(Br)cc2)cc1C1=C(O)[C@@H]2CC[C@](C)(C1=O)C2(C)C [Example A-234] , pest or weed control at 250 g/ha value = 100

The measured pest or weed control at 250 g/ha that CCc1ccc(Oc2ccccc2F)cc1C1=C(O)C(C)(C)OC(C)(C)C1=O [Example A-13] showed for Echinochloa crus-galli (ECHCG) is 0

The reported pest or weed control at 250 g/ha value, Echinochloa crus-galli (ECHCG), for CCc1ccc(Oc2ccc(Cl)cc2)cc1C1=C(O)C(C)(C)OC(C)(C)C1=O [Example A-4] reads 100

Sample CCc1ccc(Oc2ncc(C)cn2)cc1C1=C(O)C(C)(C)OC(C)(C)C1=O [Example A-123] , system: Echinochloa crus-galli (ECHCG). Its pest or weed control at 250 g/ha is 30

Known value: Echinochloa crus-galli (ECHCG) pest or weed control at 250 g/ha of the molecule CCc1ccc(Oc2ncc(Cl)cc2[N+](=O)[O-])cc1C1=C(O)C(C)(C)OC(C)(C)C1=O [Example A-162] equals 60

# CCc1ccc(Oc2ncc(Cl)cn2)cc1C1=C(O)C(C)(C)OC(C)(C)C1=O [Example A-107] with Echinochloa crus-galli (ECHCG): pest or weed control at 250 g/ha is 100

Per the reported Echinochloa crus-galli (ECHCG) data, CCc1ccc(Oc2ccc(Cl)cc2)cc1C1=C(O)CCCC1=O [Example A-27] has pest or weed control at 250 g/ha of 100

CCc1ccc(Oc2nc3c(Cl)cc(Cl)cc3s2)cc1C1=C(O)C(C)(C)OC(C)(C)C1=O [Example A-221] on Echinochloa crus-galli (ECHCG) gives pest or weed control at 250 g/ha = 70

Given the molecule CCc1ccc(Oc2nc3cc(Cl)ccc3s2)cc1C1=C(O)CC(C)(C)CC1=O [Example A-293] and test system Echinochloa crus-galli (ECHCG), the measured pest or weed control at 250 g/ha is 100

Item CCc1ccc(Oc2ccc(Br)c(Cl)c2)cc1C1=C(O)CC(C)(C)CC1=O [Example A-258] ; assay system Echinochloa crus-galli (ECHCG); pest or weed control at 250 g/ha reported as 70

Summary: CCc1ccc(Oc2ncc(Cl)cc2F)cc1C1=C(O)C(C)(C)OC(C)(C)C1=O [Example A-54] , Echinochloa crus-galli (ECHCG), pest or weed control at 250 g/ha = 100

Here CCc1ccc(Oc2ccc(Cl)c(F)c2)cc1C1=C(O)CC2(CCOCC2)CC1=O [Example A-66] was tested on Echinochloa crus-galli (ECHCG), and its pest or weed control at 250 g/ha came to 100

// molecule CCc1ccc(Oc2ncc(I)cc2Cl)cc1C1=C(O)C(C)(C)OC(C)(C)C1=O [Example A-157] , assay Echinochloa crus-galli (ECHCG), pest or weed control at 250 g/ha value: 80

For CCc1ccc(Oc2ccc(Br)cc2)cc1C1=C(O)CC2(CCOCC2)CC1=O [Example A-37] on Echinochloa crus-galli (ECHCG), measured pest or weed control at 250 g/ha was 100

Bench note, Echinochloa crus-galli (ECHCG): CCc1ccc(Oc2ccc(C(F)(F)F)c(C#N)c2)cc1C1=C(O)C(C)(C)OC(C)(C)C1=O [Example A-210] , pest or weed control at 250 g/ha reads 60

Value sought: pest or weed control at 250 g/ha, system Echinochloa crus-galli (ECHCG), item CCc1ccc(Oc2ccc(Br)cc2Cl)cc1C1=C(O)CC2(CCOCC2)CC1=O [Example A-189] . Result: 90

Reading of pest or weed control at 250 g/ha for CCc1ccc(Oc2ccc(Br)cc2F)cc1C1=C(O)CC(C)(C)CC1=O [Example A-49] with Echinochloa crus-galli (ECHCG): 100

# lookup: CCc1ccc(Oc2cnc3ccccc3n2)cc1C1=C(O)CC2(CCOCC2)CC1=O [Example A-307] on Echinochloa crus-galli (ECHCG), pest or weed control at 250 g/ha = 100

# CCc1ccc(Oc2cnc3cc(Cl)ccc3n2)cc1C1=C(O)CC(C)(C)CC1=O [Example A-82] with Echinochloa crus-galli (ECHCG): pest or weed control at 250 g/ha is 100

Lab note: molecule CCc1ccc(Oc2ncc(Cl)cc2Cl)cc1C1=C(O)[C@H]2CC[C@H](C2)C1=O [Example A-336] tested on Echinochloa crus-galli (ECHCG); recorded pest or weed control at 250 g/ha was 100

Hey, Echinochloa crus-galli (ECHCG) data for CC1(C)OC(C)(C)C(O)=C(c2cc(Oc3ccc(Cl)cc3)ccc2OC(F)(F)F)C1=O [Example A-302] : pest or weed control at 250 g/ha came out at 60

The molecule CCc1ccc(Oc2c(F)ncc(Cl)c2F)cc1C1=C(O)C(C)(C)OC(C)(C)C1=O [Example A-192] , when measured on Echinochloa crus-galli (ECHCG), yielded pest or weed control at 250 g/ha of 20

Record CCc1ccc(Oc2ncnc3sccc23)cc1C1=C(O)C(C)(C)OC(C)(C)C1=O [Example A-126] / Echinochloa crus-galli (ECHCG), pest or weed control at 250 g/ha recorded as 10

The value of pest or weed control at 250 g/ha recorded for CCc1ccc(Oc2ccc(Cl)cn2)cc1C1=C(O)C(C)(C)OC(C)(C)C1=O [Example A-147] when tested on Echinochloa crus-galli (ECHCG) reads 100

The reported Echinochloa crus-galli (ECHCG) pest or weed control at 250 g/ha of CCc1ccc(Oc2nc3ccc(OC)cc3s2)cc1C1=C(O)[C@H]2CC[C@H](C2)C1=O [Example A-343] is 100

Lab note: molecule CCc1ccc(Oc2ccc(Cl)cc2OC)cc1C1=C(O)C(C)(C)OC(C)(C)C1=O [Example A-181] tested on Echinochloa crus-galli (ECHCG); recorded pest or weed control at 250 g/ha was 0

I looked up CCc1ccc(Oc2cccc(F)n2)cc1C1=C(O)C(C)(C)OC(C)(C)C1=O [Example A-43] and its pest or weed control at 250 g/ha for Echinochloa crus-galli (ECHCG) was 90

Case CCc1ccc(Oc2ncc(Cl)cc2Cl)cc1C1=C(O)CC(C)(C)CC1=O [Example A-84] , Echinochloa crus-galli (ECHCG), pest or weed control at 250 g/ha recorded as 100

Note to self: pest or weed control at 250 g/ha of CCc1ccc(Oc2cc(Cl)c(Cl)nn2)cc1C1=C(O)C(C)(C)OC(C)(C)C1=O [Example A-129] with Echinochloa crus-galli (ECHCG) was 30

// pest or weed control at 250 g/ha (Echinochloa crus-galli (ECHCG)) for CCc1ccc(Oc2ccc(F)cc2)cc1C1=C(O)CC2(CCOCC2)CC1=O [Example A-35] = 100

Item CCc1ccc(Oc2nc3c(Cl)cccc3s2)cc1C1=C(O)C(C)(C)OC(C)(C)C1=O [Example A-193] was tested on Echinochloa crus-galli (ECHCG); the reported pest or weed control at 250 g/ha is 90
